Experiment: Visual solubility in differing solvents (European Pharmacopeia 6.0 section 5.11)
Type: physicochemical
Conditions: ethanol, 25 °C, organic solvent or mixture, thermodynamic from solid, ethanol at 25° C.; read-out: visual solubility in ethanol
Description: Visual solubility of certain forms (compounds) in differing solvents was assessed according to the procedure described in the European Pharmacopeia 6.0 section 5.11. p. The compound was shaken vigorously for 1 min and placed in a constant temperature device for 15 min at 25.0±0.5° C. If the compound was not completely dissolved, the shaking was repeated for 1 min and the tube placed in a constant temperature device for 15 min. […]
quantity_kind: solubility at 15 min

[[record]]
compound = "OCc1cc([C@@H](O)CNCCCCCCOCCOCc2c(Cl)cccc2Cl)ccc1O [form I, reference compound]"
quantity_kind = "solubility at 15 min"
result_value = "10 to 33 mg/mL"


Data provenance: patent US11414374B2
